Listed compounds paired with reported phenotypic severity score
# Tested on: Schistosoma mansoni schistosomula (NMRI);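 further: visual microscopic scoring of shape, motility and density changes versus 0.5% DMSO solvent controls, one point per descriptor, degeneracy or death scored 4, mean of duplicate wells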
# assay protocol: phenotypic severity score (0-4); higher = more antischistosomal effect, active = 2 or more
# experimental conditions: 72 h; 10 µM
readout label: phenotypic severity score

INSERT INTO assay_data (compound, result_value) VALUES
  ('Cc1cc(C)n2nc(C(=O)Nc3cc(C(F)(F)F)ccc3N3CCOCC3)nc2n1', 0),
  ('N=C(N)Nc1ccc(-c2ccc(-c3ccc(N=C(N)N)c(Cl)c3)o2)cc1Cl', 0),
  ('CN1CCN(S(=O)(=O)c2ccc(-c3ccc4c(Nc5ncc(Cl)cn5)ccnc4c3)cc2)CC1', 4),
  ('CS(=O)(=O)N1CCC(CCn2nc(Cc3cccc4ccccc34)c3c(N)ncnc32)CC1', 0),
  ('NCCC(O)C(=O)N[C@@H]1C[C@H](N)[C@@H](OC2O[C@H](CN)[C@@H](O)[C@H](O)[C@H]2O)[C@H](O)C1OC1O[C@H](CO)[C@@H](O)[C@H](N)[C@H]1O (stereo partly specified)', 0),
  ('Cc1nc(-c2cccc(NCc3ccccc3)c2)[nH]c1C', 0),
  ('Cc1ccc2oc(-c3cc(NC(=O)Cc4ccccc4)ccc3Cl)nc2c1', 0),
  ('Cc1cc(NCCc2ccccc2)nc(NC(=N)Nc2ccc(Cl)cc2)n1', 4),
  ('CC[C@H](CO)NCCN[C@H](CC)CO', 0),
  ('CN1CCC(NCc2cccc(-c3ccc(S(=O)(=O)NCc4ccccc4)cc3)c2)CC1', 4),
  ('Cc1ccc(NC(=O)c2nc[nH]c2C(=O)Nc2nc3ccccc3[nH]2)c(C)c1', 4);

Origin of measurements: the supplement of paper PMC6805474
